system: LOX IMVI; assay: NCI tumour cell line growth inhibition, 48 h
Active and inactive are the calls of the source. Rule as the data show it: active = GI50 up to about 1.1 µM and inactive = higher.
Quantity: GI50

{"columns": ["Compound", "Observed Measurement"],
 "data": [
  ["CN(C)/C(F)=P\\C(F)(F)F (configuration not stated)", "> 100 µM (inactive)"],
  ["Cc1nnc(N/N=C(/C(=O)C(C#N)c2ccccc2)C(C#N)c2ccccc2)n1N (configuration not stated)", "1.54 µM (inactive)"],
  ["CC(=O)OCC1OC(n2c3c(c(-c4ccc(C)cc4)c(C#N)c2=S)C(=O)CC(C)(C)C3)C(OC(C)=O)C(OC(C)=O)C1OC(C)=O (configuration not stated)", "13.3 µM (inactive)"],
  ["CNC(=S)N/N=C(\\C)c1cc(OC)ccc1O", "> 100 µM (inactive)"],
  ["CC(=O)NS(=O)(=O)c1ccc(NC(=O)c2c3ccccc3nc3ccccc23)cc1", "> 100 µM (inactive)"],
  ["C=CCn1c(=O)ccn(COCCO)c1=O", "> 100 µM (inactive)"],
  ["O=c1ccccc2cccc(O)c12", "> 100 µM (inactive)"]
]}
